System: SW-620
testName: NCI tumour cell line growth inhibition, 48 h
Calls of active or inactive are those of the source. No stated cut-off is given here; in the data, active = GI50 up to about 1.1 µM and inactive = higher.
parameterMeasured: GI50

// worked examples, GI50 included
CCOC12OC3=C(CC1CC1=C(CCC1=O)O2)C(=O)CC3 (configuration not stated)	> 100 µM (inactive)
COc1ccccc1/N=N/c1c(-c2ccccc2)nn(C(=O)CC(=O)Nc2cccc(C)c2)c1-c1ccccc1	41.3 µM (inactive)
CSc1nc2c(ncn2C2OC(CO)C(O)C(O)C2O)c(=O)[nH]1 (configuration not stated)	> 100 µM (inactive)
N#CCC(=O)N/N=C\C(O)C(O)C(O)C(O)CO (configuration not stated)	> 100 µM (inactive)
CCCC[C@@H](C)/C=C1\CN2CCC[C@H]2[C@@](C)(OCc2ccccc2)[C@@H]1O	> 50 µM (inactive)
O=C(Nc1ccccc1)n1cc(-c2ccccn2)c(N2CCOCC2)n1	5.85 µM (inactive)
COc1ccc(C2c3c(n(C)c(=O)n(C)c3=O)OC(N(C)C)(N(C)C)C2(F)F)cc1 (configuration not stated)	> 100 µM (inactive)
COC(=O)C1=C(C(=O)OC)SC2(S1)C1=C(CCCC1)SC(C(=O)OC)=C2C(=O)OC	2.09 µM (inactive)
c1ccc2sc(SCSc3nc4ccccc4s3)nc2c1	96.8 µM (inactive)
Cc1ccc(Sc2ccccc2[N+](=O)[O-])cc1	25.9 µM (inactive)

Query compound follows.
response.value for O=c1oc2cc(O)ccc2cc1-c1nc2ccccc2o1 (field: GI50) = 40.3 µM (inactive)

====

Test system: SF-268
testName: NCI tumour cell line growth inhibition, 48 h
Calls of active or inactive are those of the source. Cut-off read from the data, not from the text of the source: active = GI50 up to about 1.1 µM and inactive = higher.
parameterMeasured: GI50

// worked examples, GI50 included
c1ccc2c(c1)nc1ccccn12	> 100 µM (inactive)
Cc1ccc2c(c1)C(C1Cc3cccc(C)c3C1=O)OC2=O (stereo unspecified)	> 100 µM (inactive)
Cc1cccc(/C=N/NC(=S)Nc2ccccc2)n1	3.31 µM (inactive)
O=C(O)C1(Cc2ccc3c(c2)CCC3)Cc2ccccc2C1	52.7 µM (inactive)

response.value for CC12CCC(=O)C[C@H]1CCC(OC=O)C2Br (stereo partly specified) (field: GI50) = > 100 µM (inactive)

response.value for Cc1ccc(S(=O)(=O)N2CCc3cc(O)c([N+](=O)[O-])cc32)cc1 (field: GI50) = > 100 µM (inactive)

====

Each record here notes measured GI50.
Tested on: KM12
testName: NCI tumour cell line growth inhibition, 48 h
Active and inactive are the calls of the source. Cut-off read from the data, not from the text of the source: active = GI50 up to about 1.1 µM and inactive = higher.

// worked examples, GI50 included
COc1ccc(C2CC3(c4ccccc4)ON=C(c4ccccc4)N3c3ccccc3S2)cc1 (stereo not given)	> 100 µM (inactive)
CCOC(=O)C1=C(C)NC(C)=C(C(=O)OCC)C1c1ccc(C)cc1	46.7 µM (inactive)
COc1cc(/C=C2\CCC/C(=C\c3ccc(OC(=O)CCCCC4CCSS4)c(OC)c3)C2=O)ccc1OC(=O)CCCCC1CCSS1 (stereo not given)	> 100 µM (inactive)
COc1ccc2[nH]c3c4c(c5cc(C(C)(C)C)ccc5c3c2c1)C(=O)N(c1ccccc1)C4=O	> 100 µM (inactive)

Query compound follows.
response.value for CC[C@H]1[C@@H](C)C=C[C@@H](C)N1S(=O)(=O)c1ccc(C)cc1 (field: GI50) = > 100 µM (inactive)

Each recorded value in this set is attributed to ChEMBL document CHEMBL1201862.
